Target: Type-2 angiotensin II receptor (Sus scrofa)
Experiment: Displacement of [125I]-Ang II from pig uterus membrane angiotensin II type 2 (AT2) receptor
Value type: Ki (nM)

CCCCOC(=O)NS(=O)(=O)c1sc(CC(C)C)cc1-c1ccc(Cn2cnc3cccnc32)cc1    7.1
CCCCOC(=O)NS(=O)(=O)c1sc(CC(C)C)cc1-c1ccc(Cn2ccnc2C)cc1    0.5
CCCCOC(=O)NS(=O)(=O)c1sc(CC(C)C)cc1-c1ccc(Cn2c(CC)nc3ccccc32)cc1    3.2

[A] CCCCOC(=O)NS(=O)(=O)c1sc(CC(C)C)cc1-c1ccc(Cn2cnc3ccccc32)cc1
[B] CCCCOC(=O)NS(=O)(=O)c1sc(CC(C)C)cc1-c1ccc(CC#N)cc1
Input: Lab log: flag the item ( A or B ) with the smaller Ki figure. // caller expects the label of the chosen entry
Output: A
